Data provenance: patent US10253078

# EXPERIMENTAL TARGET: human GLP-1 receptor (human, UniProt P43220 24-463)
# PROTOCOL NOTES: cell-based or functional assay
Starred links: 1 amine or outer side, 2 acyl side, 3 side chain; linkers in the order of their positions; H or OH if unused. Non-standard residues stand in square brackets, D forms with d. Groups on a side chain read outwards from the residue. *: point of attachment. C20 diacid = O=C(O)CCCCCCCCCCCCCCCCCCC(=O)*; γGlu = O=C(O)[C@H](CCC(=O)[*:2])N[*:1]; Aib = CC(C)(N)C(=O)O
EC50 hGLP1 R (cAMP, HEK293 cells expressing the GLP-1R) listing for selected binders.

Some solved entries appear below for comparison.
BINDER	RESULT
H-Y[Aib]EGTFISDYSIELDKK([Peg3-Peg3-γGlu-C20 diacid])AQKEFVEWLLAAGPSSGAPPPS-NH2 [Compound 22]	> 10 nM
H-Y[Aib]EGTFISDYSIELDKIAQRAFIEWLLAGPSSGAPPPSK([Peg3-Peg3-γGlu-C20 diacid])-NH2 [Compound 23]	> 10 nM
H-Y[Aib]EGTFISDYSIELDKK([Peg3-Peg3-γGlu-C20 diacid])AAQAFVNWLLAGPSSGAPPPS-NH2 [Compound 29]	> 100 nM
YAEGTFISDYSIELDKKAQRAFVEWLLAQGPSSGAPPPS (Aib at 2; Lys 17 side chain acylated: K((19-Carboxy-nonadecanoyl)-[(Piperazine-1-yl)-acetyl]-Peg3-Peg3); C-terminal amide (-NH2)) [Compound 20]	> 3 nM

Consider the binder H-Y[Aib]EGTFISDYSK([Peg3-Peg3-γGlu-C20 diacid])ELDKIAQRAFIEWLLAQGPSSGAPPPS-NH2 [Compound 35] . State its measured EC50 hGLP1 R (cAMP, HEK293 cells expressing the GLP-1R).
> 3 nM

For H-Y[Aib]EGTFISDYSIELEKIAQRAFVEWLLAQK([Peg3-Peg3-γGlu-C20 diacid])-NH2 [Compound 14] , write its EC50 hGLP1 R (cAMP, HEK293 cells expressing the GLP-1R).
> 10 nM

Fill in EC50 hGLP1 R (cAMP, HEK293 cells expressing the GLP-1R) for record H-Y[Aib]EGTFISDYSIELDKIAQRAFIEWLLAQGPSSGAPPPSK([Peg3-Peg3-γGlu-C20 diacid])-NH2 [Compound 28]
> 3 nM

Recall and state the measured EC50 hGLP1 R (cAMP, HEK293 cells expressing the GLP-1R) for H-Y[dA]EGTFISDYSIELDKK([Peg3-Peg3-γGlu-C20 diacid])AQRAFIEWLLAQGPSSGAPPPS-NH2 [Compound 36] .
> 10 nM

Give EC50 hGLP1 R (cAMP, HEK293 cells expressing the GLP-1R) for the following binder: YXEGTFISDYSIELDKIAAQDFIEWLLAGPSSGAPPPSK (D-Ala at 2; Lys 39 side chain acylated: K((19-Carboxy-nonadecanoyl)-[(Piperazine-1-yl)-acetyl]-Peg3-Peg3); C-terminal amide (-NH2)) [Compound 37]
> 10 nM

Entry H-Y[Aib]EGTFISDYSIELDKK([Peg3-Peg3-γGlu-C20 diacid])AAQDFVNWLLAGPSSGAPPPS-NH2 [Compound 15] needs its EC50 hGLP1 R (cAMP, HEK293 cells expressing the GLP-1R) filled in; supply it.
> 100 nM
